The values you see were collected from patent US10597390B2.

- Assay Method Text: in vitro
- Condition Parameters: dog, TOX MDCK CC50
CC50 at 3 days less than 7 µM is 1; CC50 at 3 days greater than or equal to 7 µM is -1.

CC1(C(CC(=O)O)Nc2nc(-c3c[nH]c4c(F)cc(F)cc34)ncc2F)CCCC1 (stereo not shown) :: 1
Cn1nc(C(=O)N[C@@H]2CCC[C@H](Nc3nc(-c4c[nH]c5c(F)cc(F)cc45)ncc3F)C2)cc1N :: -1
Cn1cncc1C(=O)N[C@@H]1CCC[C@H](Nc2nc(-c3c[nH]c4c(F)cc(Cl)cc34)ncc2F)C1 :: -1
Cc1cc(C(=O)N[C@H]2CCC[C@@H](Nc3nc(-c4c[nH]c5c(F)cc(F)cc45)c(C(F)(F)F)cc3F)C2)nn1C (racemic) :: -1
N#Cc1cc(F)c(N[C@@H]2CCC[C@H](NC(=O)[C@@H](O)c3ccccc3)C2)nc1-c1c[nH]c2c(F)cc(F)cc12 :: 1

Turning now to a further compound:
Q: Confirm or reject: CC50 at 3 days of `O=C(N[C@@H]1CCC[C@H](Nc2nc(-c3c[nH]c4c(F)cc(F)cc34)ncc2F)C1)c1ncc[nH]1` lies strictly below 7 µM
A: -1

* * *

Readings of melting point for the listed molecules
Unit °C implied. Number only.

Q: What melting point value was documented for this molecule, Cc1cc(C(=O)N[C@@H]2CCC[C@H](Nc3nc(-c4c[nH]c5c(F)cc(Cl)cc45)ncc3F)C2)n(C)n1 [Compound 41] ?
A: 281.2

Q: Sample Cc1cc(C(=O)N[C@@H]2CCC[C@@H](Nc3nc(-c4c[nH]c5c(F)cc(F)cc45)c(C#N)cc3F)C2)on1 (racemic) [Compound 207] — what was its melting point?
A: 285

Q: Using the record for Cc1cn(C)nc1C(=O)N[C@@H]1CCC[C@H](Nc2nc(-c3c[nH]c4c(F)cc(Cl)cc34)ncc2F)C1 [Compound 73] , report its melting point.
A: 248.4

* * *

- Assay Method Text: in vitro
- Condition Parameters: dog, TOX MDCK CC50
Property Name: CC50 at 3 days

Nc1nccc(C(=O)N[C@@H]2CCC[C@H](Nc3nc(-c4c[nH]c5c(F)cc(F)cc45)ncc3F)C2)n1 :: > 25 µM

Q: I would be grateful if you could share the reported CC50 at 3 days for Cn1nc(NS(N)(=O)=O)cc1C(=O)N[C@@H]1CCC[C@H](Nc2nc(-c3c[nH]c4c(F)cc(F)cc34)ncc2F)C1 (relative stereo) .
A: > 25 µM

Q: Please report the recorded CC50 at 3 days for Cc1cc(F)c2[nH]cc(-c3nc(N[C@@H]4CCC[C@@H](NC(=O)c5nc(C)oc5C)C4)c(F)cc3C#N)c2c1 (racemic) .
A: > 25 µM

* * *

Reported melting point values follow for various compounds

Some compounds with recorded melting point:
Nc1n[nH]c(C(=O)N[C@@H]2CCC[C@H](Nc3nc(-c4c[nH]c5c(F)cc(F)cc45)ncc3F)C2)n1 :: > 300 °C
N#Cc1cc(F)c2[nH]cc(-c3ncc(F)c(N[C@H]4CCC[C@@H](NC(=O)c5c[nH]nn5)C4)n3)c2c1 :: > 300 °C

Here is the next item to consider.
Q: Using the record for `CCn1nccc1C(=O)N[C@@H]1CCC[C@H](Nc2nc(-c3c[nH]c4c(F)cc(Cl)cc34)ncc2F)C1` , report its melting point.
A: > 300 °C

* * *

Listed below: CC50 at 3 days values for each entry.
- Assay Method Text: in vitro
- Condition Parameters: dog, TOX MDCK CC50

# example entries with known answers
O=C(O)c1n[nH]nc1C(=O)N[C@@H]1CCC[C@H](Nc2nc(-c3c[nH]c4c(F)cc(F)cc34)ncc2F)C1 :: > 25 µM
N#Cc1cc(F)c2[nH]cc(-c3ncc(F)c(N[C@H]4CCC[C@@H](NC(=O)c5ccccn5)C4)n3)c2c1 (racemic) :: > 25 µM

Consider the additional molecule presented here.
Q: For the molecule O=C(NC1CCOC1)N[C@@H]1CCC[C@H](Nc2nc(-c3c[nH]c4c(F)cc(F)cc34)ncc2F)C1 (relative stereo) , what CC50 at 3 days is on record?
A: > 25 µM

* * *

Items are presented alongside their recorded melting point.

Cn1nccc1C(=O)N[C@@H]1CCC[C@H](Nc2nc(-c3c[nH]c4c(F)cc(Cl)cc34)ncc2F)C1 [Compound 61] :: > 300 °C

Q: I am curious: what melting point value has been reported for Cc1ncn(C)c1C(=O)N[C@@H]1CCC[C@H](Nc2nc(-c3c[nH]c4c(F)cc(F)cc34)ncc2F)C1 [Compound 113] ?
A: > 300 °C

Q: So what's the measured melting point for this one? CC(=O)NCc1cc(F)c(N[C@@H]2CCC[C@H](NC(=O)N3CCCC3)C2)nc1-c1c[nH]c2c(F)cc(F)cc12 [Compound 248]
A: < 260 °C

Q: Please look up its melting point: Cn1ncnc1C(=O)N[C@@H]1CCC[C@H](Nc2nc(-c3c[nH]c4c(F)cc(Cl)cc34)ncc2F)C1 [Compound 75]
A: > 300 °C

Q: // melting point lookup, key: Cc1cc(F)c2[nH]cc(-c3ncc(F)c(N[C@@H]4CCC[C@@H](NC(=O)c5cn(C)cn5)C4)n3)c2c1 (racemic) [Compound 196]
A: > 250 °C

* * *

Property Name: melting point

Below: 2 compounds and their reported melting point.
Cc1cc(F)c2[nH]cc(-c3nc(N[C@@H]4CCC[C@@H](NC(=O)c5nc(C)oc5C)C4)c(F)cc3C#N)c2c1 (racemic) :: > 250 °C
O=C(N[C@@H]1CCC[C@H](Nc2nc(-c3c[nH]c4c(F)cc(F)cc34)ncc2F)C1)c1cncnc1 :: > 300 °C

Next up:
Q: What value of melting point has been reported for the following compound? `Cc1ncn(C)c1C(=O)N[C@@H]1CCC[C@H](Nc2nc(-c3c[nH]c4c(F)cc(Cl)cc34)ncc2F)C1`
A: > 300 °C

* * *

- Assay Method Text: in vitro
- Condition Parameters: dog, TOX MDCK CC50
Property Name: CC50 at 3 days

The following compounds have reported results that may help.
CC(=O)NCc1ccc(N[C@H]2CCC[C@@H](NC(=O)N3CCCC3)C2)nc1-c1c[nH]c2c(F)cc(F)cc12 (racemic) [Compound 260] :: > 25 µM
Cn1nncc1C(=O)N[C@@H]1CCC[C@H](Nc2nc(-c3c[nH]c4c(F)cc(F)cc34)ncc2F)C1 [Compound 119] :: > 50 µM

Now look at this entry.
Q: State the recorded CC50 at 3 days for this entry: Cc1nc(C(=O)N[C@@H]2CCC[C@H](Nc3nc(-c4c[nH]c5c(F)cc(F)cc45)ncc3F)C2)no1 [Compound 118]
A: > 25 µM

* * *

Overview of recorded melting point for various compounds
Quick note: give the figure in °C, leave out the unit.

A selection of reference data follows.
O=C(N[C@@H]1CCC[C@H](Nc2nc(-c3c[nH]c4c(F)cc(Cl)cc34)ncc2F)C1)c1ncn[nH]1 [Compound 69] :: 293.5
COc1ccnc(C(=O)N[C@@H]2CCC[C@H](Nc3nc(-c4c[nH]c5c(F)cc(F)cc45)c(C#N)cc3F)C2)c1 [Compound 161] :: 285.5
O=C(N[C@@H]1CCC[C@H](Nc2nc(-c3c[nH]c4c(F)cc(F)cc34)ncc2F)C1)[C@H]1CCCN1 [Compound 148] :: 220.8

Proceeding to the next compound to report its melting point.
Q: What value of measured melting point is listed for Nc1cc(C(=O)N[C@@H]2CCC[C@H](Nc3nc(-c4c[nH]c5c(F)cc(Cl)cc45)ncc3F)C2)ncn1 [Compound 66] ?
A: 152.4

* * *

- Assay Method Text: in vitro
- Condition Parameters: dog, TOX MDCK CC50
API: label(entry) gives Condition met if the entry's CC50 at 3 days is strictly smaller than 10 µM; on equality or larger values it gives Condition not met.

Use the examples below as a reference point.
Cn1ccc(C(=O)N[C@@H]2CCC[C@@H](Nc3nc(-c4c[nH]c5c(F)cc(F)cc45)c(C#N)cc3F)C2)n1 (racemic) :: Condition not met
Cn1nncc1C(=O)N[C@@H]1CCC[C@H](Nc2nc(-c3c[nH]c4c(F)cc(Cl)cc34)ncc2F)C1 :: Condition not met
Cn1nccc1C(=O)N[C@@H]1CCC[C@H](Nc2nc(-c3c[nH]c4c(F)cc(F)cc34)ncc2F)C1 :: Condition not met
O=C(N[C@@H]1CCC[C@H](Nc2nc(-c3c[nH]c4c(F)cc(F)cc34)ncc2F)C1)c1ccc(F)cn1 (racemic) :: Condition not met

Q: Answer whether the compound `CN1CCC[C@H]1C(=O)N[C@H]1CCC[C@@H](Nc2nc(-c3c[nH]c4c(F)cc(F)cc34)ncc2F)C1` has CC50 at 3 days strictly less than 10 µM
A: Condition not met

Q: Consider the compound `Cc1cc(F)c2[nH]cc(-c3ncc(F)c(N[C@@H](CC(=O)O)C(C)(C)c4ccn(C)n4)n3)c2c1` . Is its CC50 at 3 days strictly less than 10 µM?
A: Condition not met
